Where do the numbers come from? From ChEMBL document CHEMBL2046289.

# system: UniProt P08684
# Sequence (P08684 whole entry): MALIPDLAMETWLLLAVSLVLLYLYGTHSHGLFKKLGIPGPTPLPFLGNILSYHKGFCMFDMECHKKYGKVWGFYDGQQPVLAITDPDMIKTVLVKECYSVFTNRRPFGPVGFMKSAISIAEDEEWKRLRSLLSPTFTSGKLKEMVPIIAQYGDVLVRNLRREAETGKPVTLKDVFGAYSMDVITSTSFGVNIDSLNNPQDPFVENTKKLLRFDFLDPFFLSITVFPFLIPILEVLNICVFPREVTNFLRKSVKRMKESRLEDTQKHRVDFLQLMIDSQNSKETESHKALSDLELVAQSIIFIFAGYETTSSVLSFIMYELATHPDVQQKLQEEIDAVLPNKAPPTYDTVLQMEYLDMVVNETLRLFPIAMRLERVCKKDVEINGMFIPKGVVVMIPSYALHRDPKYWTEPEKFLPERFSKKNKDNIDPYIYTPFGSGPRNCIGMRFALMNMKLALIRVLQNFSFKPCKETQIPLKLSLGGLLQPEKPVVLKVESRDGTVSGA
# assay remarks: Inhibition of CYP3A4 using midazolam as substrate
# Type: ADME

smiles text	display unit	IC50
COc1ccc(C(=O)N2CCc3ccccc32)cc1CSc1nc2cc(F)ccc2n1CC(=O)O	µM	5
COc1ccc(C(C)=O)cc1CSc1nc2ccccc2n1CC(=O)O	µM	37
CCCCNC(=O)c1ccc(OC)c(CSc2nc3cc(F)ccc3n2CC(=O)O)c1	µM	4
COc1ccc(C(C)=O)cc1CSc1nc2cc(F)ccc2n1CC(=O)O	µM	10

---

# assay remarks: Intrinsic clearance in rat liver microsomes assessed per mg protein
# Assay type: ADME, Microsome
# protocol conditions: read-out: CLH

smiles text	display unit	microsomal CLint
COc1ccc(C(=O)N2CCc3ccccc32)cc1CSc1nc2cc(F)ccc2n1CC(=O)O	µL/min/mg	91
COc1ccc(C(C)=O)cc1CSc1nc2cc(F)ccc2n1CC(=O)O	µL/min/mg	60
COc1ccc(C(C)=O)cc1CSc1nc2ccccc2n1CC(=O)O	µL/min/mg	17
CCCCNC(=O)c1ccc(OC)c(CSc2nc3cc(F)ccc3n2CC(=O)O)c1	µL/min/mg	60

---

# assay remarks: Half life in Wistar rat at 1 mg/kg, iv and 10 mg/kg, po
# Type: ADME, organism-based
# protocol conditions: in vivo
List of half-life values.
parameter measured: half-life (h)

smiles text	reported
COc1ccc(C(C)=O)cc1CSc1nc2ccccc2n1CC(=O)O	2.5
COc1ccc(C(C)=O)cc1CSc1nc2cc(F)ccc2n1CC(=O)O	0.9

---

Item-by-item account of solubility
# assay remarks: Solubility of the compound in 0.1 M HCl
# Format: physicochemical
# protocol conditions: buffer

smiles text	solubility
COc1ccc(C(=O)N2CCc3ccccc32)cc1CSc1nc2cc(F)ccc2n1CC(=O)O	158 µg/mL
CCCCNC(=O)c1ccc(OC)c(CSc2nc3cc(F)ccc3n2CC(=O)O)c1	670 µg/mL
COc1ccc(C(C)=O)cc1CSc1nc2cc(F)ccc2n1CC(=O)O	484 µg/mL
COc1ccc(C(C)=O)cc1CSc1nc2ccccc2n1CC(=O)O	575 µg/mL

---

Each entry below lists one item and its recorded IC50 value.
# system: Prostaglandin D2 receptor 2 (Homo sapiens)
# Sequence (Q9Y5Y4 whole entry): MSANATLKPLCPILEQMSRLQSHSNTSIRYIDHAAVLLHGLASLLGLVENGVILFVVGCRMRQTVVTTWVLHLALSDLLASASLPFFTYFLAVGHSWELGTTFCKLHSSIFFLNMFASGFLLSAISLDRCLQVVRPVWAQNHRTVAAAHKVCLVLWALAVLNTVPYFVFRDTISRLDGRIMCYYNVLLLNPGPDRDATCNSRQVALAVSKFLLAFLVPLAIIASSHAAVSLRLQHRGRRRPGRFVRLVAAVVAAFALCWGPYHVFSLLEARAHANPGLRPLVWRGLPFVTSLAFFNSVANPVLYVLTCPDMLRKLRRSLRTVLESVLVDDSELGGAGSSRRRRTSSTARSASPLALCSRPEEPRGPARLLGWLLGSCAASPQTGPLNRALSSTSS
# assay remarks: Antagonist activity at human CRTh2 receptor expressed in HEK293 cells assessed as inhibition of PGD2-induced calcium flux by FLIPR assay
# Assay type: functional, cell-based

smiles text	display unit	IC50
COc1ccc(C(C)=O)cc1CSc1nc2cc([N+](=O)[O-])ccc2n1CC(=O)O	nM	3
COc1ccc(C(=O)c2ccccc2)cc1CSc1nc2cc(F)ccc2n1CC(=O)O	nM	4
COc1ccc(C(=O)NCc2ccccc2)cc1CSc1nc2cc(F)ccc2n1CC(=O)O	nM	94
CCCCNC(=O)c1ccc(OC)c(CSc2nc3cc(F)ccc3n2CC(=O)O)c1	nM	15
COc1ccc(C(=O)N2CCOCC2)cc1CSc1nc2cc(F)ccc2n1CC(=O)O	nM	91
COc1ccc(C(C)=O)cc1CSc1nc2cc(C=O)ccc2n1CC(=O)O	nM	9
COc1ccc(C(C)=O)cc1CSc1nc2cc(C(F)(F)F)ccc2n1CC(=O)O	nM	5
CCCOc1ccc(C(C)=O)cc1CSc1nc2cc(F)ccc2n1CC(=O)O	nM	9
O=C(O)Cn1c(SCCOc2ccc(Cl)cc2)nc2ccccc21	nM	6600
CCOc1ccc(C(C)=O)cc1CSc1nc2cc(F)ccc2n1CC(=O)O	nM	5
CCCCOc1ccc(C(C)=O)cc1CSc1nc2cc(F)ccc2n1CC(=O)O	nM	12
COc1ccc(C(C)=O)cc1CSc1nc2ccccc2n1CC(=O)O	nM	25
COc1ccc(C(C)=O)cc1CSc1nc2cc(C(C)=O)ccc2n1CC(=O)O	nM	63
COc1ccc(C(C)=O)cc1CSc1nc2cc(S(C)(=O)=O)ccc2n1CC(=O)O	nM	50
COc1ccc(C(C)=O)cc1CSc1nc2cc(F)ccc2n1CC(=O)O	nM	5
CCN(CC)C(=O)c1ccc(OC)c(CSc2nc3cc(F)ccc3n2CC(=O)O)c1	nM	130
COc1ccc(C(C)=O)cc1CSc1nc2ccc(F)cc2n1CC(=O)O	nM	89
COc1ccc(C(C)=O)cc1CSc1nc2c(F)cccc2n1CC(=O)O	nM	10
CCNC(=O)c1ccc(OC)c(CSc2nc3cc(F)ccc3n2CC(=O)O)c1	nM	15
CCN(Cc1ccccc1)C(=O)c1ccc(OC)c(CSc2nc3cc(F)ccc3n2CC(=O)O)c1	nM	725
